Origin of measurements: ChEMBL document CHEMBL2396621

# System: SF-295
# assay name: Cytotoxicity against human SF295 cells assessed as growth inhibition at 10 uM after 48 hrs by coulter counter analysis
# Type: functional
# condition summary: SF-295, 48 h, read-out: GI

compound smiles: Cc1ccc(NC(=O)CSc2nc3ccccc3c(=O)n2CCc2ccccc2)cc1
operator symbol: =
inhibition of growth at 10 µM [%]: 12
//
compound smiles: CCOc1ccc(NC(=O)CSc2nc3ccccc3c(=O)n2CCc2ccccc2)cc1
operator symbol: <
inhibition of growth at 10 µM [%]: 10
//
compound smiles: NC(=O)CSc1nc2ccccc2c(=O)n1CCc1ccccc1
operator symbol: <
inhibition of growth at 10 µM [%]: 10
//
compound smiles: O=C(CSc1nc2ccccc2c(=O)n1CCc1ccccc1)Oc1ccc(Cl)cc1
operator symbol: <
inhibition of growth at 10 µM [%]: 10
//
compound smiles: O=C(CSc1nc2ccccc2c(=O)n1CCc1ccccc1)Nc1ccc(Cl)cc1
operator symbol: =
inhibition of growth at 10 µM [%]: 32
